Experiment notes: Plasma concentration in femoral artery cannulated Lewis rat at 3 mg/kg, po after 48 hrs
Assay type: ADME, organism-based
Design: dose 3 mg/kg, route oral
Endpoint name: concentration at 48 h (nM)
Just the number in nM, nothing appended.

What concentration at 48 h value was documented for this compound, O=C(O)C1CN(Cc2ccc(OCc3cc(-c4ccccc4)c(C(F)(F)F)s3)cc2)C1 ?
13

---

Experiment notes: Plasma concentration in femoral artery cannulated Lewis rat at 3 mg/kg, po after 4 hrs
Type: ADME, organism-based
Set-up: dose 3 mg/kg, route oral
Endpoint name: concentration at 4 h

Field request: concentration at 4 h | item: O=C(O)C1CN(Cc2ccc(OCc3cc(-c4ccccc4)c(C(F)(F)F)s3)cc2)C1
320 nM

---

Experiment notes: Plasma concentration in femoral artery cannulated Lewis rat at 3 mg/kg, po after 20 hrs
Format: ADME, organism-based
Set-up: dose 3 mg/kg, route oral
Endpoint name: concentration at 20 h

Please give the measured concentration at 20 h for this compound: O=C(O)C1CN(Cc2ccc(OCc3cc(-c4ccccc4)c(C(F)(F)F)s3)cc2)C1
150 nM

---

Target under test: Sphingosine 1-phosphate receptor 1 (Homo sapiens, UniProt P21453)
Sequence (P21453 whole entry): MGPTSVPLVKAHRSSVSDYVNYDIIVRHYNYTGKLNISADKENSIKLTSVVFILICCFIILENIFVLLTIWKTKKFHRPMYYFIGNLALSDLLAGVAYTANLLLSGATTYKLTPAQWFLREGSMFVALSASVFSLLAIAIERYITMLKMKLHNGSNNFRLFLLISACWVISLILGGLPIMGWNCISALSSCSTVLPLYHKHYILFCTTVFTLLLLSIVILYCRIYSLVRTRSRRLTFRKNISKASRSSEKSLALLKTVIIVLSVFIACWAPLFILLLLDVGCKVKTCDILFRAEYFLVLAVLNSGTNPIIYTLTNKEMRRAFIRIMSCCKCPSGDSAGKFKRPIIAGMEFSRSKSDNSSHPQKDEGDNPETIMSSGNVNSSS
Experiment notes: Activity at human S1P1 receptor expressed in CHO cells by [35S]GTPgammaS binding assay
Format: functional, cell-based
Endpoint name: EC50

Need EC50, item O=C(O)C1CN(Cc2ccc(OCc3cc(-c4ccccc4)c(C(F)(F)F)s3)c(Br)c2)C1
3.3 nM (agonist)

Here is the next molecule: O=C(O)C1CN(Cc2cc(Cl)c(OCc3cc(-c4ccccc4)c(C(F)(F)F)s3)c(Cl)c2)C1
2.7 nM (agonist)

Also O=C(O)C1CN(Cc2ccc(OCc3cc(-c4ccccc4)c(C(F)(F)F)s3)cc2)C1 , if possible.
0.5 nM (agonist)

Here is the next molecule: CCc1cc(CN2CC(C(=O)O)C2)ccc1OCc1cc(-c2ccccc2)c(C(F)(F)F)s1
1.4 nM (agonist)

Queued: O=C(O)C1CN(Cc2ccc(-c3noc(-c4cc(-c5ccccc5)c(C(F)(F)F)s4)n3)cc2)C1
0.2 nM (agonist)

Next record, please: Cc1cc(CN2CC(C(=O)O)C2)ccc1OCc1cc(-c2ccccc2)c(C(F)(F)F)s1
0.8 nM (agonist)

Record: O=C(O)C1CN(Cc2ccc(OCc3cc(-c4ccccc4)c(C(F)(F)F)s3)c(C(F)(F)F)c2)C1
5.9 nM (agonist)

// query: O=C(O)C1CCN(Cc2ccc(OCc3cc(-c4ccccc4)c(C(F)(F)F)s3)cc2)C1 (configuration not stated)
2.4 nM (agonist)

One more molecule: Cc1cc(CN2CC(C(=O)O)C2)cc(C)c1OCc1cc(-c2ccccc2)c(C(F)(F)F)s1
1.3 nM (agonist)

Let us now turn to O=C(O)C1CN(Cc2ccc(OCc3cc(-c4ccccc4)c(C(F)(F)F)s3)c(Cl)c2)C1
1.4 nM (agonist)

Now this one: COc1cc(CN2CC(C(=O)O)C2)ccc1OCc1cc(-c2ccccc2)c(C(F)(F)F)s1
47 nM (agonist)

Item: O=C(O)C1CN(Cc2ccc(OCc3cc(-c4ccccc4)c(C(F)(F)F)s3)c(F)c2)C1
1.3 nM (agonist)

---

Experiment notes: Cmax in rat at 2 mg/kg, po and 1 mg/kg, iv
Assay type: ADME, organism-based
Recorded conditions: in vivo
Endpoint name: Cmax (nM)
Numeric only. Scale: nM

Suppose we examine the molecule O=C(O)C1CN(Cc2ccc(OCc3cc(-c4ccccc4)c(C(F)(F)F)s3)cc2)C1 ; what Cmax value has been reported?
300

Do the same for O=C(O)C1CN(Cc2ccc(OCc3cc(-c4ccccc4)c(C(F)(F)F)s3)c(Cl)c2)C1 please
500

And then Cc1cc(CN2CC(C(=O)O)C2)ccc1OCc1cc(-c2ccccc2)c(C(F)(F)F)s1 , what is it?
500

# repeat for O=C(O)C1CN(Cc2ccc(-c3noc(-c4cc(-c5ccccc5)c(C(F)(F)F)s4)n3)cc2)C1
1300
